- targetOrSystem: human cloned 5-HT6 receptors (Homo sapiens, UniProt P50406)
- Construct: expressed in transfected cells; host or cells: Hela cells
- Sequence (P50406 whole entry): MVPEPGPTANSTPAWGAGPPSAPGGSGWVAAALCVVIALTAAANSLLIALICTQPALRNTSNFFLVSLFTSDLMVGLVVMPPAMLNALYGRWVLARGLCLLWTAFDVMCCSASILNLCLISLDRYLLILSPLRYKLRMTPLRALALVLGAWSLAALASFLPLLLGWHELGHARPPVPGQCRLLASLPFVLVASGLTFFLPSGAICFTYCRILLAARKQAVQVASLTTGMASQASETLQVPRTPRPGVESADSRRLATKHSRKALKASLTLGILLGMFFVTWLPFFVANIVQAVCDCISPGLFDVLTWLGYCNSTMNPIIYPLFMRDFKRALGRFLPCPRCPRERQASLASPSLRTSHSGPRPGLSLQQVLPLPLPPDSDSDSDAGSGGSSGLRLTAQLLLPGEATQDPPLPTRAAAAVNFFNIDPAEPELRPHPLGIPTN
- methodNotes: 5-HT6 binding affinity, [3H]-LSD displacement on membranes of Hela cells expressing the receptor
quantity: Ki (µM)
Give the value, in units of µM, as a plain number.

> print(dat)
                               smilesrecord  quantity  unittext  observed
1  NCCc1cn(S(=O)(=O)c2c(Cl)nc3sccn23)c2ccc(OCc3ccccc3)cc12        Ki        µM     0.169

Prompt: GET /values?readout=Ki&item= Cc1ccc2c(c1)c(CCN)cn2S(=O)(=O)c1c(Cl)nc2sccn12
Response: 0.031

Prompt: GET /values?readout=Ki&item= NCCc1cn(S(=O)(=O)c2c(Cl)nc3ccccn23)c2ccccc12
Response: 0.014

Prompt: GET /values?readout=Ki&item= CN(CCc1cn(S(=O)(=O)c2c(Cl)nc3sccn23)c2ccccc12)Cc1ccccc1
Response: 0.005
